Test system: mice
Assay: Neuropharmacological assay (SmartCube), behavioral signature of compound-treated mice
Type: in vivo
Conditions: i.p. 15 min before behavioral test, most efficacious dose(s) of 3 doses
Measure: CE: cognitive enhancer (probability that behavioral signature matches class)

Chemical Smiles	Experimental Value
Fc1ccc2c(c1)[C@H]([C@H]1CCCN1)OCCC2	+ (LOQ ≤ + <5%)
C[C@]1([C@H]2CCCN2)OCc2cc(F)ccc21	++ (5% ≤ ++ <25%)
CC1(C)Cc2ccccc2[C@@H]([C@H]2CCCN2)O1	+ (LOQ ≤ + <5%)
c1cc(-c2ccc3c(c2)CCO[C@@H]3[C@@H]2CCCN2)on1	+ (LOQ ≤ + <5%)
Fc1ccc2c(c1)CO[C@@H]2[C@@H]1CCCN1	++ (5% ≤ ++ <25%)
